- ASSAYED_TARGET: T1, HP1a-CSD A174E (residues 131-206) (D. melanogaster, UniProt P05205 131-206, A174E)
- T1 sequence (looked up): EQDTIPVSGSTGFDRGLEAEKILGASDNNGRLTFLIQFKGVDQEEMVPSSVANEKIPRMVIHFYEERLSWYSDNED
- ASSAY_TEXT: fluorescence polarisation
No end group written: not given here. fluorescein = fluorescein group at the N-terminus

{"BINDER": "fluorescein-QNISPRKLSVKINRRPYNKWLR [HP2 peptide Cys to Ser mutant (LSVKI), N-terminal fluorescein]", "Kd": "1.26 µM"}
{"BINDER": "fluorescein-TSRGSGDPRVKVFRGSSSGDY [PIWI peptide, N-terminal fluorescein]", "Kd": "101 µM"}
